Test system: Systolic Blood Pressure
protocol notes: Antihypertensive activity: indirect systolic blood pressure in renal hypertensive rats
Type: in vivo
condition parameters: rat, 31 mg/kg p.o., 2 hr; * in table = statistically significant change from control
endpoint: Change in Systolic Blood Pressure at 2 hr (mmHg)

molecule: Brc1cccc(NC2CCN3CCc4c(n(Cc5ccccc5)c5ccccc45)C3C2)c1.Cl (centres unmarked)
reading unit: mmHg
meas value: -16

molecule: Cl.Cl.NC1CCN2CCc3c(n(Cc4ccccc4)c4ccccc34)C2C1.O (centres unmarked)
reading unit: mmHg
meas value: -11

molecule: Brc1ccc(NC2CCN3CCc4c(n(Cc5ccccc5)c5ccccc45)C3C2)cc1.Cl.Cl (centres unmarked)
reading unit: mmHg
meas value: -5

molecule: COc1ccc(NC2CCN3CCc4c(n(Cc5ccccc5)c5ccccc45)C3C2)cc1.Cl.Cl (centres unmarked)
reading unit: mmHg
meas value: -20

---

System: dog heart in situ
protocol notes: Antianginal activity: aortic-coronary sinus difference in oxygen (myocardial oxygen consumption) in anesthetized dogs
Type: in vivo
condition parameters: 1 mg/kg i.v., 30 min
endpoint: Arterio-Venous Difference in Oxygen Partial Pressure at 30 min (mmHg)

molecule: Cl.Cl.NC1CCN2CCc3c(n(Cc4ccccc4)c4ccccc34)C2C1.O (centres unmarked) [TR3698]
reading unit: mmHg
meas value: 28
--
molecule: O=[N+]([O-])OCC(CO[N+](=O)[O-])O[N+](=O)[O-] [Nitroglycerin, nitroglycerin, reference compound]
reading unit: mmHg
meas value: 21
--
molecule: O=[N+]([O-])c1cccc(NC2CCN3CCc4c(n(Cc5ccccc5)c5ccccc45)C3C2)c1 (centres unmarked) [TR2998]
reading unit: mmHg
meas value: 18
--
molecule: COc1ccc(NC2CCN3CCc4c(n(Cc5ccccc5)c5ccccc45)C3C2)cc1.Cl.Cl (centres unmarked) [TR3006]
reading unit: mmHg
meas value: 37
--
molecule: CC(=O)Nc1cccc(NC2CCN3CCc4c(n(Cc5ccccc5)c5ccccc45)C3C2)c1.O=C(O)C(=O)O (centres unmarked) [TR3716]
reading unit: mmHg
meas value: 27
--
molecule: Brc1ccc(NC2CCN3CCc4c(n(Cc5ccccc5)c5ccccc45)C3C2)cc1.Cl.Cl (centres unmarked) [TR3631]
reading unit: mmHg
meas value: 30
--
molecule: CC(C)NC1CCN2CCc3c(n(Cc4ccccc4)c4ccccc34)C2C1.Cl.Cl.O (centres unmarked) [TR3687]
reading unit: mmHg
meas value: 20
--
molecule: CC(=O)Nc1ccc(NC2CCN3CCc4c(n(Cc5ccccc5)c5ccccc45)C3C2)cc1.Cl.Cl (centres unmarked) [TR3635]
reading unit: mmHg
meas value: 24

---

Tested on: dog heart in situ
protocol notes: Antianginal activity: aortic-coronary sinus difference in oxygen (myocardial oxygen consumption) in anesthetized dogs
Type: in vivo
condition parameters: 1 mg/kg i.v., 1 min
Where a name gives a salt, the structure may show the parent alone.
So basically: Arterio-Venous Difference in Oxygen Partial Pressure at 1 min at 20 mmHg or higher? That is Met. Lower than 20 mmHg? That is Not met.

compound: CC(=O)Nc1ccc(NC2CCN3CCc4c(n(Cc5ccccc5)c5ccccc45)C3C2)cc1.Cl.Cl (centres unmarked)
assay target: dog heart in situ
class name: Met

compound: O=[N+]([O-])OCC(CO[N+](=O)[O-])O[N+](=O)[O-] [Nitroglycerin, nitroglycerin, reference compound]
assay target: dog heart in situ
class name: Not met

compound: O=[N+]([O-])c1cccc(NC2CCN3CCc4c(n(Cc5ccccc5)c5ccccc45)C3C2)c1 (centres unmarked)
assay target: dog heart in situ
class name: Not met

compound: Brc1ccc(NC2CCN3CCc4c(n(Cc5ccccc5)c5ccccc45)C3C2)cc1.Cl.Cl (centres unmarked)
assay target: dog heart in situ
class name: Met

compound: c1ccc(Cn2c3c(c4ccccc42)CCN2CCC(Nc4ccccc4)CC32)cc1 (centres unmarked) [TR2981, dihydrochloride]
assay target: dog heart in situ
class name: Not met

compound: Brc1cccc(NC2CCN3CCc4c(n(Cc5ccccc5)c5ccccc45)C3C2)c1.Cl (centres unmarked)
assay target: dog heart in situ
class name: Not met

compound: CC(C)NC1CCN2CCc3c(n(Cc4ccccc4)c4ccccc34)C2C1.Cl.Cl.O (centres unmarked)
assay target: dog heart in situ
class name: Not met

---

Tested on: Systolic Blood Pressure
protocol notes: Antihypertensive activity: indirect systolic blood pressure in renal hypertensive rats
Assay type: in vivo
condition parameters: rat, 31 mg/kg p.o., 4 hr; * in table = statistically significant change from control
Counter-ions that a name gives are not always drawn.
Here, each record is paired with measured Change in Systolic Blood Pressure at 4 hr data.
endpoint: Change in Systolic Blood Pressure at 4 hr (mmHg)

compound: NS(=O)(=O)c1ccc(NC2CCN3CCc4c(n(Cc5ccccc5)c5ccccc45)C3C2)cc1 (stereo not drawn) [TR3718, hydrochloride]
meas value: -21

compound: Brc1cccc(NC2CCN3CCc4c(n(Cc5ccccc5)c5ccccc45)C3C2)c1.Cl (stereo not drawn) [TR3014]
meas value: -2

compound: Cl.Cl.NC1CCN2CCc3c(n(Cc4ccccc4)c4ccccc34)C2C1.O (stereo not drawn) [TR3698]
meas value: -3

---

Here, each record is paired with measured Change in Systolic Blood Pressure at 4 hr data.
System: Systolic Blood Pressure
protocol notes: Antihypertensive activity: indirect systolic blood pressure in renal hypertensive rats
Assay type: in vivo
condition parameters: rat, 31 mg/kg p.o., 4 hr; * in table = statistically significant change from control
Where a name gives a salt, the structure may show the parent alone.
endpoint: Change in Systolic Blood Pressure at 4 hr

molecule: O=[N+]([O-])c1cccc(NC2CCN3CCc4c(n(Cc5ccccc5)c5ccccc45)C3C2)c1 (centres unmarked)
meas value: -4 mmHg

molecule: Cc1cccc(NC2CCN3CCc4c(n(Cc5ccccc5)c5ccccc45)C3C2)c1.Cl.Cl (centres unmarked)
meas value: -17 mmHg

molecule: Brc1ccc(NC2CCN3CCc4c(n(Cc5ccccc5)c5ccccc45)C3C2)cc1.Cl.Cl (centres unmarked)
meas value: +12 mmHg

molecule: CC(C)NC1CCN2CCc3c(n(Cc4ccccc4)c4ccccc34)C2C1.Cl.Cl.O (centres unmarked)
meas value: +18 mmHg

molecule: CC(=O)Nc1ccc(NC2CCN3CCc4c(n(Cc5ccccc5)c5ccccc45)C3C2)cc1.Cl.Cl (centres unmarked)
meas value: -27 mmHg

molecule: c1ccc(Cn2c3c(c4ccccc42)CCN2CCC(Nc4ccccc4)CC32)cc1 (centres unmarked) [TR2981, dihydrochloride]
meas value: -5 mmHg

molecule: COc1ccc(NC2CCN3CCc4c(n(Cc5ccccc5)c5ccccc45)C3C2)cc1.Cl.Cl (centres unmarked)
meas value: -18 mmHg

molecule: FC(F)(F)c1cccc(NC2CCN3CCc4c(n(Cc5ccccc5)c5ccccc45)C3C2)c1 (centres unmarked) [TR3633, dihydrochloride]
meas value: +8 mmHg

---

Here, each record is paired with measured Change in Systolic Blood Pressure at 2 hr data.
Tested on: Systolic Blood Pressure
protocol notes: Antihypertensive activity: indirect systolic blood pressure in renal hypertensive rats
Type: in vivo
condition parameters: rat, 31 mg/kg p.o., 2 hr; * in table = statistically significant change from control
Where a name gives a salt, the structure may show the parent alone.
endpoint: Change in Systolic Blood Pressure at 2 hr (mmHg)

compound: NS(=O)(=O)c1ccc(NC2CCN3CCc4c(n(Cc5ccccc5)c5ccccc45)C3C2)cc1 (stereo not shown) [TR3718, hydrochloride]
reading unit: mmHg
meas value: -16
--
compound: O=[N+]([O-])c1cccc(NC2CCN3CCc4c(n(Cc5ccccc5)c5ccccc45)C3C2)c1 (stereo not shown)
reading unit: mmHg
meas value: -2
--
compound: CC(=O)Nc1cccc(NC2CCN3CCc4c(n(Cc5ccccc5)c5ccccc45)C3C2)c1.O=C(O)C(=O)O (stereo not shown)
reading unit: mmHg
meas value: -42
--
compound: Cc1cccc(NC2CCN3CCc4c(n(Cc5ccccc5)c5ccccc45)C3C2)c1.Cl.Cl (stereo not shown)
reading unit: mmHg
meas value: -24
--
compound: CC(=O)Nc1ccc(NC2CCN3CCc4c(n(Cc5ccccc5)c5ccccc45)C3C2)cc1.Cl.Cl (stereo not shown)
reading unit: mmHg
meas value: -23

---

Test system: dog heart in situ
protocol notes: Antianginal activity: aortic-coronary sinus difference in oxygen (myocardial oxygen consumption) in anesthetized dogs
Format: in vivo
condition parameters: 1 mg/kg i.v., 1 min
Structures can show the parent of a compound that is named as a salt.
Here, each record is paired with measured Arterio-Venous Difference in Oxygen Partial Pressure at 1 min data.
endpoint: Arterio-Venous Difference in Oxygen Partial Pressure at 1 min (mmHg)

compound: FC(F)(F)c1cccc(NC2CCN3CCc4c(n(Cc5ccccc5)c5ccccc45)C3C2)c1 (centres unmarked) [TR3633, dihydrochloride]
reading unit: mmHg
meas value: 31
//
compound: Cl.Cl.NC1CCN2CCc3c(n(Cc4ccccc4)c4ccccc34)C2C1.O (centres unmarked) [TR3698]
reading unit: mmHg
meas value: 27
//
compound: COc1ccc(NC2CCN3CCc4c(n(Cc5ccccc5)c5ccccc45)C3C2)cc1.Cl.Cl (centres unmarked) [TR3006]
reading unit: mmHg
meas value: 30
//
compound: CC(=O)Nc1cccc(NC2CCN3CCc4c(n(Cc5ccccc5)c5ccccc45)C3C2)c1.O=C(O)C(=O)O (centres unmarked) [TR3716]
reading unit: mmHg
meas value: 22
//
compound: NS(=O)(=O)c1ccc(NC2CCN3CCc4c(n(Cc5ccccc5)c5ccccc45)C3C2)cc1 (centres unmarked) [TR3718, hydrochloride]
reading unit: mmHg
meas value: 20
